Values from ChEMBL document CHEMBL1158495

Test: Cytotoxicity against human MT4 cells after 5 days by MTT assay
Format: cell-based
assay_endpoint: CC50 at 120 h (µM)
API: value field is a number in µM; no unit string.

Inquiry: Param item = C[C@H](CO)n1cc(C(=O)O)c(=O)c2cc(Cc3cccc(Cl)c3F)ccc21 ; retrieve measured CC50 at 120 h.
Reply text: 14.4

Inquiry: Name the recorded CC50 at 120 h for Cn1cc(C(=O)O)c(=O)c2cc(Cc3cccc(Cl)c3Cl)ccc21 .
Reply text: 14.4

Inquiry: Name the reported CC50 at 120 h value associated with the molecule NC(=O)CCn1cc(C(=O)O)c(=O)c2cc(Cc3cccc(Cl)c3Cl)ccc21
Reply text: 15.1

Inquiry: Fill in the blank: the reported CC50 at 120 h of O=C(O)c1cn([C@H](CO)C2CCCCC2)c2ccc(Cc3cccc(Cl)c3F)cc2c1=O is ____.
Reply text: 7.7
